system: S. aureus (ATCC 25293); assay: In vitro anti-S. aureus CFU assay; type: cell-based, Staphylococcus aureus; conditions: peptide 0.032 mg/mL + ZnCl2 (0.9:1), 3 h, pH 5.4
Residues, ends and D or L forms follow the SMILES beside them.
Readings of CFU decrease/increase with respect to untreated controls for the listed molecules

Reference set, count: 2
1) CC[C@H](C)[C@H](NC(=O)[C@H](C)NC(=O)[C@@H](NC(C)=O)C(C)C)C(=O)N[C@@H](C)C(=O)N[C@@H](CC(C)C)C(=O)N[C@@H](CCCCN)C(=O)N[C@@H](C)C(=O)N[C@@H](C)C(=O)N[C@@H](Cc1c[nH]cn1)C(=O)N[C@@H](Cc1ccc(O)cc1)C(=O)N[C@@H](Cc1c[nH]cn1)C(=O)N[C@H](C(=O)N[C@@H](Cc1c[nH]cn1)C(=O)N[C@@H](CCCCN)C(=O)N[C@@H](CCC(=O)O)C(=O)O)[C@@H](C)O [L1, Ac-VAIALKAAHYHTHKE] (Ac-VAIALKAAHYHTHKE-OH) : +14%
2) CC[C@H](C)[C@H](NC(=O)[C@H](C)NC(=O)[C@@H](N)C(C)C)C(=O)N[C@@H](C)C(=O)N[C@@H](CC(C)C)C(=O)N[C@@H](CCCCN)C(=O)N[C@@H](C)C(=O)N[C@@H](C)C(=O)N[C@@H](Cc1c[nH]cn1)C(=O)N[C@@H](Cc1ccc(O)cc1)C(=O)N[C@@H](Cc1c[nH]cn1)C(=O)N[C@H](C(=O)N[C@@H](Cc1c[nH]cn1)C(=O)N[C@@H](CCCCN)C(=O)N[C@@H](CCC(=O)O)C(=O)O)[C@@H](C)O [WT, VAIALKAAHYHTHKE, reference compound] (H-VAIALKAAHYHTHKE-OH) : +5%

query: Fill in: CFU decrease/increase with respect to untreated controls of CC[C@H](C)[C@H](NC(=O)[C@H](C)NC(=O)[C@@H](NC(C)=O)C(C)C)C(=O)N[C@@H](C)C(=O)N[C@@H](CC(C)C)C(=O)N[C@@H](CCCCN)C(=O)N[C@@H](C)C(=O)N[C@@H](C)C(=O)N[C@@H](Cc1c[nH]cn1)C(=O)N[C@@H](Cc1ccc(O)cc1)C(=O)N[C@@H](Cc1c[nH]cn1)C(=O)N[C@H](C(=O)N[C@@H](Cc1c[nH]cn1)C(=O)N[C@@H](CCCCN)C(=O)N[C@@H](CCC(=O)O)C(N)=O)[C@@H](C)O [L2, Ac-VAIALKAAHYHTHKE-NH2] (Ac-VAIALKAAHYHTHKE-NH2) is ___
result: 0%
